biological target: α-glucosidase (EC3.2.1.20); assay: p-nitrophenyl-d-glucopyranoside hydrolysis, absorbance at […] nm, pH […] °C; format: biochemical, Saccharomyces cerevisiae; conditions: read-out: IC50 μM
MEASURED_METRIC: IC50 (µM)
All answers are understood in µM, so give the number only.

Query: # lookup: α-glucosidase (EC3.2.1.20) IC50, key = COc1c(-c2ccc(O)c(O)c2)oc2c(O)c(O)ccc2c1=O [compound 1]
Reply: 45.9
